Below are molecules with their IC50 as measured on Plasma kallikrein (Homo sapiens, UniProt P03952).
Sequence (P03952 20-390 limits assumed): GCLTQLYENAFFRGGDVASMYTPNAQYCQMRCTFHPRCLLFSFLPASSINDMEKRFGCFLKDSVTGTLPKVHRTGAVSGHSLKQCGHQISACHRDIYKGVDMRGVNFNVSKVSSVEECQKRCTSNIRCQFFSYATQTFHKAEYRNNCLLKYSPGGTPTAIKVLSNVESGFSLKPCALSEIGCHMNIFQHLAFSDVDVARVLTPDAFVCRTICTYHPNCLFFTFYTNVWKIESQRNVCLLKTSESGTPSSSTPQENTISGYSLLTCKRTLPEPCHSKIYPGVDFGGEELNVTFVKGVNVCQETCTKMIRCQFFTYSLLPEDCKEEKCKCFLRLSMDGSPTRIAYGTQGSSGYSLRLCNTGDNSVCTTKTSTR
Sequence (P03952 391-638 limits assumed): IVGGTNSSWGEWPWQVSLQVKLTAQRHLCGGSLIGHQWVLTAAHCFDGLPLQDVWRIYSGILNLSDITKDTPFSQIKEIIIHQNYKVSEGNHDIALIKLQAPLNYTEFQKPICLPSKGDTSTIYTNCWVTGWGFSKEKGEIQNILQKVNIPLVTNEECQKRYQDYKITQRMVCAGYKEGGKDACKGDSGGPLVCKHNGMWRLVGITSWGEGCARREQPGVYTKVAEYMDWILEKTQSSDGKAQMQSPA

MOL_SMILES	IC50 / nM
Cc1cccc(C(=O)O)c1OCCc1cc(-c2ccc3c(c2)[C@H](N)CO3)cc(C(C)C)c1	41
CC(C)(C(N)=O)c1cc(COc2ccccc2CC(=O)O)cc(-c2ccc3c(c2)[C@H](N)CO3)c1	11
CC(C)(C#N)c1cc(COc2ccccc2CC(=O)O)cc(-c2ccc3c(c2)[C@H](N)CO3)c1	2

====

# SYSTEM_TESTED: Bile salt export pump (Homo sapiens)
# Sequence (O95342 whole entry): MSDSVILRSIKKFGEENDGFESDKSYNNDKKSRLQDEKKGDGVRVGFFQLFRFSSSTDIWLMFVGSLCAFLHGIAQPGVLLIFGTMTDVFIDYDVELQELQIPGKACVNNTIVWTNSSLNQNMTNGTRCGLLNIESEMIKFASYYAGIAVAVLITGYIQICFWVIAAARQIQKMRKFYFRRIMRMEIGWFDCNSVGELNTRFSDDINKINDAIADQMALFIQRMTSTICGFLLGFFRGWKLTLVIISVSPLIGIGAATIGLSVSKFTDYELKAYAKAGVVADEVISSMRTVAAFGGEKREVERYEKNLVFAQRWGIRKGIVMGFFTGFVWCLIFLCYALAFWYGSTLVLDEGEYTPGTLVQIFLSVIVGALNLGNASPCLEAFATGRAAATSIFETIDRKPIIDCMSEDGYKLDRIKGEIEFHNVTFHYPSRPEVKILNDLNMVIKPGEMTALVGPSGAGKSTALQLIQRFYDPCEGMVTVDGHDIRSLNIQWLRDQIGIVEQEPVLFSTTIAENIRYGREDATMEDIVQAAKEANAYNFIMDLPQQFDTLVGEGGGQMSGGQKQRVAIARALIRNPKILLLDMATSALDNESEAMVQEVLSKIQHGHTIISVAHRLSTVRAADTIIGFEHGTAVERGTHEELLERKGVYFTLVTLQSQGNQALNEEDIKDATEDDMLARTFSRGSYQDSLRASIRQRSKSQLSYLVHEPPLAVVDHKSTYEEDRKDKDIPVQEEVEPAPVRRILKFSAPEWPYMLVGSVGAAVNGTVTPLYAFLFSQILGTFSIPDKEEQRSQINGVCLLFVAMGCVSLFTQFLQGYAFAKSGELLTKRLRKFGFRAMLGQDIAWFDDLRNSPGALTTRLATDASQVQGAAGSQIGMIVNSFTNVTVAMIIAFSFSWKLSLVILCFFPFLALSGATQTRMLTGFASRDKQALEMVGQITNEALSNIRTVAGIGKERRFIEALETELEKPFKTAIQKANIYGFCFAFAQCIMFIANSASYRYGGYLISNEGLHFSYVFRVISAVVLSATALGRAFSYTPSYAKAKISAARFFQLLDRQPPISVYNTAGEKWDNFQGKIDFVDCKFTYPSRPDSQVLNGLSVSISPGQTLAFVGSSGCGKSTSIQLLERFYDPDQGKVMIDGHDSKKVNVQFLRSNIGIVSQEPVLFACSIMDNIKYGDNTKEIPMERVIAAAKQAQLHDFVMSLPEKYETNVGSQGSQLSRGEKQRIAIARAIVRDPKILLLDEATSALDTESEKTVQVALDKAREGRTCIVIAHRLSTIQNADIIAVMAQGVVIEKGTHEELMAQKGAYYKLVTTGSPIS
# MEASUREMENT_DESCRIPTION: Inhibition of BSEP (unknown origin)
METRIC_NAME: IC50 (µM)

MOL_SMILES	UNIT_NAME	DATA_VALUE
CC(C)c1cc(-c2ccc3c(c2)[C@H](N)CO3)cc([C@H](O)Cn2ccc3cccc(C(=O)O)c32)c1	µM	28

====

# MEASUREMENT_DESCRIPTION: Oral bioavailability in C57BL/6 mouse at 3 mg/kg by LC-MS/MS analysis
# Type: ADME, organism-based
# CONDITION_PARAMETERS: in vivo
The entries below come with measured bioavailability values attached.
METRIC_NAME: bioavailability

MOL_SMILES	METRIC_NAME	DATA_VALUE
CC(C)c1cc(CCN2CCc3cccc(C(=O)O)c32)cc(-c2ccc3c(c2)[C@H](N)CO3)c1	bioavailability	36%
CC(C)(O)c1cc(COc2ccccc2CC(=O)O)cc(-c2ccc3c(c2)[C@H](N)CO3)c1	bioavailability	3%
CC(C)(C#N)c1cc(COc2ccccc2CC(=O)O)cc(-c2ccc3c(c2)[C@H](N)CO3)c1	bioavailability	25%
CC(C)c1cc(-c2ccc3c(c2)[C@H](N)CO3)cc([C@H](O)Cn2ccc3cccc(C(=O)O)c32)c1	bioavailability	16%
CC(C)c1cc(COc2ccccc2CC(=O)O)cc(-c2ccc3c(c2)[C@H](N)CO3)c1	bioavailability	100%
CC1(C)COc2c(COc3ccccc3CC(=O)O)cc(-c3ccc4c(c3)[C@H](N)CO4)cc21	bioavailability	61%

====

# MEASUREMENT_DESCRIPTION: Terminal half life in C57BL/6 mouse at 1 mg/kg, iv bolus injection or 3 mg/kg, po by LC-MS/MS analysis
# Assay type: ADME, organism-based
# CONDITION_PARAMETERS: in vivo, read-out: beta t1/2 (converted)

MOL_SMILES	UNIT_NAME	half-life
CC1(C)COc2c(COc3ccccc3CC(=O)O)cc(-c3ccc4c(c3)[C@H](N)CO4)cc21	h	6.4
CC(C)(C#N)c1cc(COc2ccccc2CC(=O)O)cc(-c2ccc3c(c2)[C@H](N)CO3)c1	h	0.3
CC(C)c1cc(COc2ccccc2CC(=O)O)cc(-c2ccc3c(c2)[C@H](N)CO3)c1	h	5.5
CC(C)(O)c1cc(COc2ccccc2CC(=O)O)cc(-c2ccc3c(c2)[C@H](N)CO3)c1	h	1.7

====

# Organism: Homo sapiens
# MEASUREMENT_DESCRIPTION: Selectivity ratio of IC50 for inhibition of human complement FD to IC50 for inhibition of human F11a
Ratio IC50 values for the molecules below.

MOLECULE	Ratio IC50
CC(C)c1cc(CCN2CCc3cccc(C(=O)O)c32)cc(-c2ccc3c(c2)[C@H](N)CO3)c1	700
CC(C)(C(N)=O)c1cc(COc2ccccc2CC(=O)O)cc(-c2ccc3c(c2)[C@H](N)CO3)c1	80
CC(C)(O)c1cc(COc2ccccc2CC(=O)O)cc(-c2ccc3c(c2)[C@H](N)CO3)c1	40
CC1(C)COc2c(COc3ccccc3CC(=O)O)cc(-c3ccc4c(c3)[C@H](N)CO4)cc21	17
CC(C)c1cc(-c2ccc3c(c2)[C@H](N)CO3)cc(C(O)CN2CCc3cccc(C(=O)O)c32)c1 (mixture of isomers)	30000
CC1(C)COc2c(COc3ccccc3CC(=O)O)cc(-c3ccc4c(c3)[C@H](N)CCO4)cc21	2500
